Test system: human osteosarcoma cell U2-OS
Assay: In vitro anticancer activity test (MTT cell proliferation)
Assay type: cell-based
Conditions: U2OS
Property Measured: IC50

| Structure Smiles String | Measurement |
| --- | --- |
| O=C(CCl)Nc1ncc(-c2cc3c(cc2F)c(=O)c(C(=O)O)cn3C2CC2)cc1F | 1 to 10 µM |

---

Test system: human liver cancer cell BLE-7402
Experiment: In vitro anticancer activity test (MTT cell proliferation)
Assay type: cell-based
pIC50: −log10 of the molar value.
// reported pIC50 for each item listed

| Molecule | pIC50 |
| --- | --- |
| O=C(CCl)Nc1ncc(-c2cc3c(cc2F)c(=O)c(C(=O)O)cn3C2CC2)cc1F | 5.00 to 6.00 |
| O=C(O)c1cn(C2CC2)c2cc(N3CCNCC3)c(F)cc2c1=O [Reference compound 2 (Ciprofloxacin), reference compound] | < 4.00 |
| O=C(O)c1cn(C2CC2)c2c(Cl)c(-c3ccc(S(=O)(=O)NCCCC(F)(F)F)nc3)c(F)cc2c1=O | 5.00 to 6.00 |
